- test_system: Rat liver microsomal squalene synthetase (Rattus norvegicus)
- Construct: Rat liver microsome, the source of enzyme; from tissue; host or cells: rat liver microsomes
- experiment_summary: In vitro inhibition of squalene synthetase
- Type: biochemical
- measurement_parameters: values marked * in Table 1: 1 µM test compound; rat liver microsomes, labelled farnesyl pyrophosphate, 10 minutes at 37 °C
readout_label: inhibition at 1 µM (%)

- molecule: "CCCN(Cc1ccc(Oc2ccccc2)cc1)C(=O)C1C(C(=O)O)C(C(=O)NC(CC(=O)O)C(=O)O)C1C(=O)N(CCC)Cc1ccc(Oc2ccccc2)cc1 (centres unmarked) [Example 109]"
  inhibition at 1 µM (%): 78
- molecule: "CCCCC(NC(=O)[C@@H]1[C@@H](C(=O)O)[C@@H](C(=O)N(CCC)Cc2ccc(Oc3ccccc3)cc2)[C@@H]1C(=O)N(CCC)Cc1ccc(Oc2ccccc2)cc1)C(=O)O (single isomer, unassigned) [Example 104A]"
  inhibition at 1 µM (%): 70
- molecule: "CCCN(Cc1ccc(Oc2ccccc2)cc1)C(=O)C1C(C(=O)O)C(C(=O)NC(CO)C(=O)O)C1C(=O)N(CCC)Cc1ccc(Oc2ccccc2)cc1 (single isomer, unassigned) [Example 110A]"
  inhibition at 1 µM (%): 73
- molecule: "CCCN(Cc1ccc(Oc2ccccc2)cc1)C(=O)C1C(C(=O)O)C(C(=O)N2CCCC2C(=O)O)C1C(=O)N(CCC)Cc1ccc(Oc2ccccc2)cc1 (centres unmarked) [Example 107]"
  inhibition at 1 µM (%): 75
- molecule: "CCCN(Cc1ccc(Oc2ccccc2)cc1)C(=O)[C@@H]1[C@H](C(=O)O)[C@@H](CC(=O)O)[C@H]1C(=O)N(CCC)Cc1ccc(Oc2ccccc2)cc1 (relative stereo) [Example 101C]"
  inhibition at 1 µM (%): 86

###

- test_system: Rat liver microsomal squalene synthetase (Rattus norvegicus)
- Construct: Rat liver microsome, the source of enzyme; from tissue; host or cells: rat liver microsomes
- Sequence (Q02769 1-416): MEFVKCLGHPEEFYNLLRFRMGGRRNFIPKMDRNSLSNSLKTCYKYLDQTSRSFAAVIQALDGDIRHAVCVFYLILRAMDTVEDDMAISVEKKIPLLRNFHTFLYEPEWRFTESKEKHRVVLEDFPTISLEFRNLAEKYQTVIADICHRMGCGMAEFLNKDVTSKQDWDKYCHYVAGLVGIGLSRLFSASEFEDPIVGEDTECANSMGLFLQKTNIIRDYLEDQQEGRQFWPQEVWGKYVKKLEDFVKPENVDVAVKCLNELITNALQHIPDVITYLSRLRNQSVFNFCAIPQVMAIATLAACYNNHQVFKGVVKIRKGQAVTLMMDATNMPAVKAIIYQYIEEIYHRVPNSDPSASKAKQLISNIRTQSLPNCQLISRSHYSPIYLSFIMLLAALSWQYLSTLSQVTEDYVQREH
- experiment_summary: In vitro inhibition of squalene synthetase
- Assay type: biochemical
- measurement_parameters: values marked * in Table 1: 1 µM test compound; rat liver microsomes, labelled farnesyl pyrophosphate, 10 minutes at 37 °C
readout_label: inhibition at 1 µM (%)

Known results for compounds:
- compound: "CCCN(Cc1ccc(Oc2ccccc2)cc1)C(=O)C1C(C(=O)O)C(C(=O)NCCC(=O)O)C1C(=O)N(CCC)Cc1ccc(Oc2ccccc2)cc1 (stereo not shown) [Example 111]"
  inhibition at 1 µM (%): 49
- compound: "O=C(O)C1C(C(=O)O)C(C(=O)N(CCF)Cc2ccc(Oc3ccccc3)cc2)C1C(=O)N(CCF)Cc1ccc(Oc2ccccc2)cc1 (stereo not shown) [Example 43]"
  inhibition at 1 µM (%): 47

[P] O=C(O)C1C(C(=O)O)C(C(=O)N(Cc2ccc(Oc3ccccc3)cc2)CC2CC2)C1C(=O)N(Cc1ccc(Oc2ccccc2)cc1)CC1CC1 (single isomer, unassigned; (-)) [Example 129B]
[Q] CCCN(Cc1ccc(Oc2ccccc2)cc1)C(=S)C1C(C(=O)O)C(C(=O)O)C1C(=S)N(CCC)Cc1ccc(Oc2ccccc2)cc1 (stereo not shown) [Example 130B]
Req: When the recorded inhibition at 1 µM values are compared, which is smaller: that of P or that of Q ? I would appreciate it if you answered with the label of your choice.
Resp: Q
